Tested on: XIP peptide (Xip251-270) binding
TEST_PROTOCOL: small-molecule binders of XIP peptide, primary screen, biochemical, small-molecule microarray, fluorescence 635/667 nm, 0.1 µg/mL protein (AID 1182)
MEASUREMENT_CONDITIONS: fluorescent protein binding, 635 nm, higher = more signal, called active from +8 up or from −8 down
# composite z-score listing for each entry below
Just the number.

// solved cases for composite z-score follow
# COMPOUND, SUBJECT_OF_TEST, composite z-score
data = [
    ("CC(=O)OC[C@H]1O[C@H](CCON=C[C@@H](C)[C@H](OCc2ccccc2)C(C)C)C=C[C@@H]1OC(C)=O", "XIP peptide (Xip251-270) binding", 0.72),
    ("[N-]=[N+]=NCc1ccccc1[C@@H]1OC(c2ccc(OCCCO)cc2)=N[C@]1(Cc1ccccc1)C(=O)N1CCOCC1", "XIP peptide (Xip251-270) binding", 0.713),
]

Now look at this entry.
Request: Kindly state the measured composite z-score obtained for CC1CC/C=C\[C@H]2OC34C=CCN(Cn5nnc6ccccc65)C(=O)[C@H]3N(CCO)C(=O)[C@@H]4C2C(=O)O1 (stereo partly drawn) with XIP peptide (Xip251-270) binding.
Response: 0.711

Origin of the recorded values: PubChem BioAssay
